STUDY TARGET: UniProt P25103
Sequence (P25103 whole entry): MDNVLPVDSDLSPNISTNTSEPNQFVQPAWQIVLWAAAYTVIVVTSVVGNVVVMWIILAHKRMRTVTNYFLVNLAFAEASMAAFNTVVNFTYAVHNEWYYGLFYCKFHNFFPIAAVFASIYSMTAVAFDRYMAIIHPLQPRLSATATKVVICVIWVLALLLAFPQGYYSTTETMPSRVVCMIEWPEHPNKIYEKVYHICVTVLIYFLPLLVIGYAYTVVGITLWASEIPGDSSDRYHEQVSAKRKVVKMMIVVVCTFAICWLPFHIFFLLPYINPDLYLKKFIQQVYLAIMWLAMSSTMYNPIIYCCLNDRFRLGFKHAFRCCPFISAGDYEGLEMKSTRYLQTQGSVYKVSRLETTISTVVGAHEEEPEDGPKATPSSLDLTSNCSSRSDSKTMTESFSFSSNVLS
PROTOCOL NOTES: Inhibitory concentration for displacement of [3H]-Substance P (SP) in human IM-9 cells
MEASURED QUANTITY: IC50 (nM)
Answers are plain numbers, in nM.

Consider the reported IC50 for these molecules:
query: If you can, please state the reported IC50 value of COc1ccc(CN[C@@H]2C3CCN(CC3)[C@@H]2c2cccc(Cl)c2)c(OC)c1 (single isomer, unassigned) .
result: 39

query: Any idea what its IC50 is? The molecule is COc1ccccc1CN[C@@H]1C2CCN(CC2)[C@H]1c1cccc(Cl)c1
result: 240

query: Param item = COc1cccc([C@H]2[C@@H](NCc3ccccc3OC)C3CCN2CC3)c1 ; retrieve measured IC50.
result: 160

Okay, here is my list. What is IC50 for each of these?
1. COc1ccccc1CN[C@@H]1C2CCN(CC2)[C@H]1c1ccccc1
2. Clc1cccc([C@H]2[C@@H](NCc3ccccc3Cl)C3CCN2CC3)c1
3. COc1ccccc1CN[C@H]1C2CCN(CC2)[C@H]1c1cccc(Cl)c1
4. COc1ccc(CN[C@H]2C3CCN(CC3)[C@@H]2c2cccc(Cl)c2)c(OC)c1

result:
1: 700; 2: 230; 3: 20; 4: 350

query: Name the recorded IC50 for COc1ccccc1CN[C@H]1C2CCN(CC2)[C@H]1c1ccccc1 .
result: 140

Attribution: ChEMBL document CHEMBL1127272
